test system: SF-268; test: Cytotoxicity against human SF268 cells after 48 hrs by SRB assay; type: functional; conditions: SF-268, 48 h
For each entry below, report its GI50 value.
Hi! Could you send only the number? It should be in µM, unit omitted.

### Prompt Which GI50 is reported with SF-268 for this entry: `COC(=O)/C(C)=C/[C@H]1C[C@@H](C)[C@]2(C)[C@@H](C=C3C4=C(CC[C@]32C)[C@@]2(C)CC[C@@H](OC(C)=O)C(C)(C)[C@@H]2CC4)O1` ?
### Response 28.6

### Prompt Query `C/C(=C\C=C/[C@@H](C)[C@@]1(C)C[C@H]2O[C@]23[C@]1(C)CCC(=O)[C@@]31CC[C@H]2C(C)(C)[C@@H](O)CC[C@@]21C)C(=O)O` next
### Response 95.7
